Molecular target: PRMT5-MTA (Homo sapiens, UniProt O14744)
Sequence (O14744 whole entry): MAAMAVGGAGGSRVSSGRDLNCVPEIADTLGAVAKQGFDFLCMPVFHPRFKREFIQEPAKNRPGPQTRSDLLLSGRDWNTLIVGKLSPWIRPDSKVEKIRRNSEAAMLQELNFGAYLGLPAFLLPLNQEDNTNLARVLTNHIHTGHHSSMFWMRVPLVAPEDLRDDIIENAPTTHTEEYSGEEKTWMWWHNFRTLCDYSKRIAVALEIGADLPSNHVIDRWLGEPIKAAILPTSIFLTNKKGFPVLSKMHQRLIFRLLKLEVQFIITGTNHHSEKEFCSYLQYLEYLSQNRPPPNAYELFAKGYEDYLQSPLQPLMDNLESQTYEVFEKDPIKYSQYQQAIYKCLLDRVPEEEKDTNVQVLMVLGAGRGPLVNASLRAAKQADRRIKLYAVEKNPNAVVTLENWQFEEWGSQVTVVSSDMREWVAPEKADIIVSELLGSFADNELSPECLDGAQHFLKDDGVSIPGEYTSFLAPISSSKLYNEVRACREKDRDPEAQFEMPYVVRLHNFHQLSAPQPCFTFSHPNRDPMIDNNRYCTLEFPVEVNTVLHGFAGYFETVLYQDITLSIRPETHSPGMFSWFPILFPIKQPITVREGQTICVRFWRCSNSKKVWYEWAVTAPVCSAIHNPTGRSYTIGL
Sequence (Q9BQA1 whole entry partner): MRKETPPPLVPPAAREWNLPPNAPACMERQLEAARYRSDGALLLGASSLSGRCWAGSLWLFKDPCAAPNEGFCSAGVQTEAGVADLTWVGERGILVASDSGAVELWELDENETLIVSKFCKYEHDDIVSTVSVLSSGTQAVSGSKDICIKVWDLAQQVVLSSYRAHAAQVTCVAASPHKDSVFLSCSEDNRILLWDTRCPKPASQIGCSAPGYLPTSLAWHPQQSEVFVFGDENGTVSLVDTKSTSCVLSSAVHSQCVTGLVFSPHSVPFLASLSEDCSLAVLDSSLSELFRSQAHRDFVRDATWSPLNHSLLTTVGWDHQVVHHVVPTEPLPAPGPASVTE
Assay: biochemical
Conditions: IC50 (nM), PRMT5+MTA enzyme activity inhibition; PRMT5/MET50 protein 1 nM, 5'-deoxy-5'-adenosine 1 µM, SAM 2.5 µM, Histone H4 substrate 5 nM
MEASUREMENT_LABEL: IC50 (nM)

For orientation, consider the following solved cases.
> print(dat)
                                   compound  value.measured
1  CNC(N)=Nc1ccc(C(=O)N(Cc2ccc(C(F)(F)F)cn2)C(C)c2ccccn2)cn1 (stereo not shown)             1.8
2  CNC(N)=Nc1ccc(C(=O)N(Cc2ccc(C(F)(F)F)cn2)C(C)c2cccc(F)c2)cn1 (stereo not shown)             1.3
3  CNC(N)=Nc1ccc(C(=O)N(Cc2ccc(C(C)F)cn2)[C@H](C)c2ccccc2F)cn1 (stereo partly shown)               8
4  CNC(N)=Nc1ccc(C(=O)N(C)C2COc3cc(-c4ccncc4)ccc32)cn1 (stereo not shown)               5
5  CNC(N)=Nc1ccc(C(=O)N(Cc2ccc(C(F)(F)F)cn2)[C@H](C)c2cccc(F)c2F)cn1             2.2
6  CNC(N)=Nc1ccc(C(=O)N2C[C@@H](C)CC[C@@H]2c2ccc(F)cc2)cn1             1.8
7  CN/C(N)=N\c1ccc(C(=O)N(Cc2ccc(C(F)(F)F)cn2)C(C)c2ncccc2F)cn1 (single isomer, unassigned) [Compound 66]             7.5
8  CNC(N)=Nc1ccc(C(=O)N(Cc2ccc(C(F)(F)F)cn2)C2CCC2)cn1               2

1 = CNC(N)=Nc1ccc(C(=O)N(Cc2ccc(C(F)(F)F)cn2)C(C)c2ccccc2C)cn1 (stereo not shown)
2 = COC=C(N)Nc1ccc(C(=O)N(Cc2ccc(C(F)(F)F)cn2)C(C)c2ncccn2)cn1 (stereo not shown)
Query block: Endpoint returns whichever of 1 and 2 has the numerically higher IC50. Answer by quoting the chosen item's label.
Result block: 2
(2: 5.8 nM, 1: 2.5 nM)
